# EXPERIMENT SUMMARY: chemical genetic growth profiling, strain panel (AID 1159580);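 further: tested at 20 µM; growth read once vehicle control cultures reached saturation at 30 °C; 1 = growth at the plate median or of vehicle wells; lower values mean less growth of the strain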
# CONDITION DESCRIPTION: S. cerevisiae deletion strains, growth OD, locus YLR342W, strain FKS1 (second series), active compounds read low
Screen size: about 5,500 compounds; about 2,000 (36%) were called active. Not shown: some 18% with an inconclusive outcome. This is one part of the list.
Rule: normalized growth below 1 gives Satisfied. Equal to or above 1 gives Not satisfied.

- COMPOUND: "COc1ccc(-c2coc3cc(O)ccc3c2=O)c(OC)c1"
  ANSWER LABEL: "Not satisfied"
- COMPOUND: "Cn1c(=O)c2c(ncn2CC(O)CO)n(C)c1=O (stereo unspecified)"
  ANSWER LABEL: "Not satisfied"
- COMPOUND: "C[C@@H]1CC(Cl)CC[C@H]1C(=O)OC(C)(C)C (stereo partly specified)"
  ANSWER LABEL: "Not satisfied"
- COMPOUND: "COC(=O)c1cc(=O)c(O)c2c(O)c(O)ccc2c1"
  ANSWER LABEL: "Satisfied"
- COMPOUND: "c1ccc2c(c1)CCCC2C1=NCCN1 (stereo unspecified)"
  ANSWER LABEL: "Not satisfied"

* * *

# EXPERIMENT SUMMARY: chemical genetic growth profiling, strain panel (AID 1159580);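 further: tested at 20 µM; growth read once vehicle control cultures reached saturation at 30 °C; 1 = growth at the plate median or of vehicle wells; lower values mean less growth of the strain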
# CONDITION DESCRIPTION: S. cerevisiae deletion strains, growth OD, locus YHR142W, strain chs7, active compounds read low
About 2,000 (36%) of roughly 5,500 compounds were called active. Another 18% or so got no clear call; they are omitted. This is one part of the list.
MEASURED QUANTITY: normalized growth

- MOLECULE: "C=C[C@@](C)(O)CCC1C(=C)C[C@H](OC(C)=O)C2C(C)(C)CCCC12C (stereo not given in full)"
  MEASURED QUANTITY: "normalized growth"
  EXPERIMENTAL VALUE: 1
- MOLECULE: "c1ccc2c(c1)CCCC2C1=NCCN1 (stereo not given)"
  MEASURED QUANTITY: "normalized growth"
  EXPERIMENTAL VALUE: 1.02
- MOLECULE: "CCCCNC(=O)NS(=O)(=O)c1ccc(C)cc1"
  MEASURED QUANTITY: "normalized growth"
  EXPERIMENTAL VALUE: 1.02
- MOLECULE: "CN1C2CCC1CC(OC(c1ccccc1)c1ccccc1N)C2 (stereo not given)"
  MEASURED QUANTITY: "normalized growth"
  EXPERIMENTAL VALUE: 1
- MOLECULE: "CN1C2CCC1CC(OC(c1ccccc1)c1ccccc1)C2 (stereo not given)"
  MEASURED QUANTITY: "normalized growth"
  EXPERIMENTAL VALUE: 0.968

* * *

Parameter normalized growth: see the listing below.
# EXPERIMENT SUMMARY: chemical genetic growth profiling, strain panel (AID 1159580);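 further: tested at 20 µM; growth read once vehicle control cultures reached saturation at 30 °C; 1 = growth at the plate median or of vehicle wells; lower values mean less growth of the strain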
# CONDITION DESCRIPTION: S. cerevisiae deletion strains, growth OD, locus YLL001W, strain dnm1, active compounds read low
Among all 5,500 compounds or so, about 2,000 (36%) were called active. Not shown: some 18% with an inconclusive outcome. Some of the results follow.

- COMPOUND: "CCCCNC(=O)NS(=O)(=O)c1ccc(C)cc1"
  normalized growth: 1.02
- COMPOUND: "CCCc1cc(C(N)=S)ccn1"
  normalized growth: 0.954
- COMPOUND: "O=C(O)CCCc1ccc(N(CCCl)CCCl)cc1"
  normalized growth: 1.01
- COMPOUND: "CCN(CC)Cc1ccc(Nc2ccnc3cc(Cl)ccc23)cc1O"
  normalized growth: 1.01
- COMPOUND: "NCCS(=O)(=O)O"
  normalized growth: 0.97
- COMPOUND: "COC(=O)[C@@H]1OC(=O)C2OC23[C@@]1(C)CCC1[C@]2(C)C(C[C@H](O)[C@]13C)C(C)(C)[C@H](OC(C)=O)C[C@@H]2OC(C)=O (stereo not given in full)"
  normalized growth: 1.02
- COMPOUND: "Cc1ccc(S(=O)(=O)NC(=O)NN2CCCCCC2)cc1"
  normalized growth: 0.982
- COMPOUND: "NCCCS(=O)(=O)O"
  normalized growth: 1.03
- COMPOUND: "CC[C@@]1(O)C[C@H](O)c2c(cc3c(c2O)C(=O)c2c(O)ccc(O)c2C3=O)[C@H]1C(=O)OC"
  normalized growth: 0.953
- COMPOUND: "O=S(=O)(O)c1cc(N=C=S)ccc1/C=C/c1ccc(N=C=S)cc1S(=O)(=O)O"
  normalized growth: 1.01
